Ref: patent EP0596406B1

# targetDesc: Bradykinin receptor (Cavia porcellus, UniProt O70526)
# Construct: The ileum was removed and homogenized in buffer; from tissue; host or cells: guinea pig ileum, crude membrane suspension
# Sequence (O70526 1-372): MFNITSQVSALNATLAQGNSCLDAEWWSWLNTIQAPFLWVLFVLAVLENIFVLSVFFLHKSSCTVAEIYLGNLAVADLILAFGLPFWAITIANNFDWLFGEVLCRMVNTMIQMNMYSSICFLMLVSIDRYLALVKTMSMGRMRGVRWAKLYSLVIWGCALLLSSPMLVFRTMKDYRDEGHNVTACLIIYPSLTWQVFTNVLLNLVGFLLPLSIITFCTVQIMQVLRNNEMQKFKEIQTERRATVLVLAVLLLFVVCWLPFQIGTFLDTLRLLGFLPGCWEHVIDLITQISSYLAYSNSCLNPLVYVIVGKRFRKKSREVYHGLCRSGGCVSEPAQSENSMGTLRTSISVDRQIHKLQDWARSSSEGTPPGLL
# test: ^3H-Bradykinin receptor binding (crude guinea pig ileum membrane)
# Parameters: species or system guinea pigs
# conditionInfo: drug 1 x 10^-5M; ^3H-Bradykinin 0.06 nM; crude ileum membrane suspension; room temperature for 60 minutes; read-out: Inhibition % of ^3H-Bradykinin binding (concentration : 1 x 10^-5M)
Where a name gives a salt, the structure may show the parent alone.
readout: inhibition at 10 µM (%)

compound	recordedMeasurement
CC(=O)NCC(=O)NCC(=O)N(C)c1ccc(Cl)c(COc2cccn3c(Br)c(C)nc23)c1Cl [61-(18), hydrochloride]	97
Cc1nc2c(OCc3c(Cl)ccc(N(C)C(=O)CNC(=S)Nc4ccccc4)c3Cl)cccn2c1Cl [Example 47]	100
Cc1nc2c(OCc3c(Cl)ccc(N(C)C(=O)CNC(=O)c4ccccc4)c3Cl)cccn2c1Br [61-(11), hydrochloride]	98
CCNC(=O)NCC(=O)N(C)c1ccc(Cl)c(COc2cccn3c(Br)c(C)nc23)c1Cl [61-(28), hydrochloride]	99
Cc1nc2c(OCc3c(Cl)ccc(N(C)C(=O)CNC(C)C)c3Cl)cccn2c1Br [61-(23), dihydrochloride]	100
Cc1nc2c(OCc3c(Cl)ccc([N+](=O)[O-])c3Cl)cccn2c1Br [Example 60, hydrochloride]	100
Cc1nc2c(OCc3c(Cl)ccc(N(C)C(=O)CNC(=O)CN(C)C)c3Cl)cccn2c1Br [61-(41), dihydrochloride]	100
CC(=O)NCC(=O)N(C)c1ccc(Cl)c(COc2cccn3c(Br)c(C)nc23)c1Cl [61-(5), hydrochloride]	99
CC(=O)N(C)c1ccc(Cl)c(COc2cccn3c(Br)c(C)nc23)c1Cl [61-(1), hydrochloride]	95
CCCC(=O)NCC(=O)N(C)c1ccc(Cl)c(COc2cccn3c(Br)c(C)nc23)c1Cl [61-(7), hydrochloride]	100
Cc1nc2c(OCc3c(Cl)ccc(N(C)C(=O)CNC(=O)Cc4ccccc4)c3Cl)cccn2c1Br [61-(13), hydrochloride]	98
COCC(=O)NCC(=O)CC(=O)N(C)c1ccc(Cl)c(COc2cccn3c(Br)c(C)nc23)c1Cl [61-(16), hydrochloride]	100
Cc1nc2c(OCc3c(Cl)ccc(N(C)C(=O)CNC(=O)[C@H]4CCCN4)c3Cl)cccn2c1Br [Example 49, dihydrochloride]	100
